# Tested on: DU-145
# ASSAY_PROTOCOL: Antiproliferative activity against human DU145 cells measured after 72 hrs by EZ-Cytox assay
# Type: functional, cell-based
# CONDITION_NOTES: DU-145, 72 h
PROPERTY_MEASURED: IC50 (nM)
Expressed in nM, but write only the number.

// known answers, use as guide
1) Oc1ccc(-c2cc(-c3ccc(Cl)cc3)c3c(n2)-c2cccc(O)c2C3)cc1 :: 1810
2) Oc1ccc(-c2cc(-c3ccc(F)cc3)nc3c2Cc2cc(O)ccc2-3)cc1 :: 1590
3) Oc1ccc(-c2cc(-c3ccccc3Cl)nc3c2Cc2ccc(O)cc2-3)cc1 :: 540
4) Oc1ccc(-c2cc(-c3ccccc3Cl)c3c(n2)-c2cccc(O)c2C3)cc1 :: 5840
5) Oc1ccc2c(c1)-c1nc(-c3ccccc3O)cc(-c3cccc(Cl)c3)c1C2 :: 37100

Find the measured IC50 of Oc1ccc(-c2cc(-c3cccc(Cl)c3)c3c(n2)-c2cc(O)ccc2C3)cc1 with DU-145 as test system. 2100

Find the measured IC50 of Oc1cccc(-c2cc(-c3cccc(F)c3)nc3c2Cc2cccc(O)c2-3)c1 with DU-145 as test system. 940

Find the measured IC50 of Oc1ccc(-c2cc(-c3ccccc3C(F)(F)F)nc3c2Cc2c(O)cccc2-3)cc1 with DU-145 as test system. 5340

Find the measured IC50 of Oc1ccc(-c2cc(-c3ccccc3C(F)(F)F)nc3c2Cc2ccc(O)cc2-3)cc1 with DU-145 as test system. 2780

Find the measured IC50 of Oc1cccc(-c2cc(-c3cccc(F)c3)nc3c2Cc2cc(O)ccc2-3)c1 with DU-145 as test system. 1410

Find the measured IC50 of Oc1cccc(-c2cc(-c3cccc(Cl)c3)nc3c2Cc2cc(O)ccc2-3)c1 with DU-145 as test system. 3210

###

# TARGET_DESC: DNA topoisomerase 1 (Homo sapiens) (UniProt P11387)
# Sequence (P11387 whole entry): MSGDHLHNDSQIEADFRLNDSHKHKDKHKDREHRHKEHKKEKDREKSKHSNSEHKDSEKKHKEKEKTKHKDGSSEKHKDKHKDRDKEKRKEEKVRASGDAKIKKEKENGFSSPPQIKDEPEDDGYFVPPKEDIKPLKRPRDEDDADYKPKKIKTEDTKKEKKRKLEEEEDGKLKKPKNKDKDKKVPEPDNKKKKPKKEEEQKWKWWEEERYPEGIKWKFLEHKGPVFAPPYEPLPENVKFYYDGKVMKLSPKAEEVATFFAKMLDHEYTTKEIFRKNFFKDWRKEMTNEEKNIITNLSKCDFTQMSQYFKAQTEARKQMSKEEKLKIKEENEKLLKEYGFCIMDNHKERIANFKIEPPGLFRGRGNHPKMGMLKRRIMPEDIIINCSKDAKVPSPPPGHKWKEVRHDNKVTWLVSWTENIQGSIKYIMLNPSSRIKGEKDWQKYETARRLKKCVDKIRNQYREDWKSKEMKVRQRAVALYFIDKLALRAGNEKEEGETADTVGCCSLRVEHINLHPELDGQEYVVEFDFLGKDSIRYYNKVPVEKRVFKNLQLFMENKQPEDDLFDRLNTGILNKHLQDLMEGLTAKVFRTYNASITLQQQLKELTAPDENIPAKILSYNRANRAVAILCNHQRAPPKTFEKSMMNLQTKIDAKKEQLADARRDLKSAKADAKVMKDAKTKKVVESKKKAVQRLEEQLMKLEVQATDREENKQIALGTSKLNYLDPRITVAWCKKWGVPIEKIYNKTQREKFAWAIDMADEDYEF
# ASSAY_PROTOCOL: Inhibition of recombinant human topoisomerase 1-mediated relaxation of supercoiled pBR322 DNA at 100 uM measured after 30 mins by ethidium bromide staining based agarose gel electrophoresis relative to control
Label y when inhibition is at or above 8%; otherwise label n.

Solved cases (6 shown):
1) Oc1cccc(-c2cc(-c3ccc(F)cc3)nc3c2Cc2ccc(O)cc2-3)c1 :: y
2) Oc1ccccc1-c1cc(-c2ccc(C(F)(F)F)cc2)nc2c1Cc1cccc(O)c1-2 :: y
3) Oc1cccc(-c2cc(-c3ccccc3Cl)nc3c2Cc2cc(O)ccc2-3)c1 :: n
4) Oc1ccc(-c2cc(-c3ccccc3C(F)(F)F)nc3c2Cc2cccc(O)c2-3)cc1 :: n
5) Oc1ccc(-c2cc(-c3ccccc3)c3c(n2)-c2ccc(O)cc2C3)cc1 :: y
6) Oc1ccc(-c2cc(-c3cccc(Cl)c3)nc3c2Cc2ccc(O)cc2-3)cc1 :: y

Can Oc1cccc(-c2cc(-c3ccccc3)c3c(n2)-c2ccc(O)cc2C3)c1 be said to have inhibition at or above 8%? y

Can Oc1cccc(-c2cc(-c3ccccc3Cl)c3c(n2)-c2cccc(O)c2C3)c1 be said to have inhibition at or above 8%? y

Can Oc1cccc(-c2cc(-c3ccc(C(F)(F)F)cc3)nc3c2Cc2c(O)cccc2-3)c1 be said to have inhibition at or above 8%? n

Can Oc1ccc(-c2cc(-c3ccc(C(F)(F)F)cc3)nc3c2Cc2cccc(O)c2-3)cc1 be said to have inhibition at or above 8%? y

Can Oc1cccc(-c2cc(-c3ccc(C(F)(F)F)cc3)nc3c2Cc2ccc(O)cc2-3)c1 be said to have inhibition at or above 8%? n

Can Oc1cccc(-c2cc(-c3cccc(C(F)(F)F)c3)nc3c2Cc2ccc(O)cc2-3)c1 be said to have inhibition at or above 8%? n

###

# Tested on: HeLa
# ASSAY_PROTOCOL: Antiproliferative activity against human HeLa cells measured after 72 hrs by EZ-Cytox assay
# Assay type: functional, cell-based
pIC50: −log10 of the molar value.
Label y when pIC50 is at or above 5; otherwise label n.

Solved cases (5 shown):
1. Oc1cccc(-c2cc(-c3cccc(F)c3)nc3c2Cc2cccc(O)c2-3)c1 :: n
2. Oc1ccc2c(c1)Cc1c(-c3ccccc3O)cc(-c3ccccc3Cl)nc1-2 :: y
3. Oc1cccc(-c2cc(-c3ccccc3Cl)nc3c2Cc2c(O)cccc2-3)c1 :: y
4. Oc1ccccc1-c1cc(-c2ccc(F)cc2)nc2c1Cc1c(O)cccc1-2 :: n
5. Oc1ccc(-c2cc(-c3ccc(F)cc3)nc3c2Cc2c(O)cccc2-3)cc1 :: y

With those in mind, consider the next compound.
Can Oc1ccc2c(c1)-c1nc(-c3ccccc3F)cc(-c3ccccc3O)c1C2 be said to have pIC50 at or above 5? y

###

# Test system: HeLa
# ASSAY_PROTOCOL: Antiproliferative activity against human HeLa cells measured after 72 hrs by EZ-Cytox assay
# Format: functional, cell-based
Parameter: IC50. Scope: all listed entries.
Expressed in µM, but write only the number.

// known answers, use as guide
1. Oc1cccc(-c2cc(-c3ccccc3)nc3c2Cc2cccc(O)c2-3)c1 :: 2.03
2. Oc1ccc(-c2cc(-c3ccccc3)c3c(n2)-c2c(O)cccc2C3)cc1 :: 2.06
3. Oc1ccc(-c2cc(-c3ccccc3Cl)c3c(n2)-c2cccc(O)c2C3)cc1 :: 3.72
4. Oc1cccc(-c2cc(-c3cccc(C(F)(F)F)c3)nc3c2Cc2ccc(O)cc2-3)c1 :: 4.7
5. Oc1cccc(-c2cc(-c3cccc(Cl)c3)nc3c2Cc2cc(O)ccc2-3)c1 :: 5.99

Now, please, on to the next molecule.
Output IC50 of Oc1cccc(-c2cc(-c3ccc(Cl)cc3)c3c(n2)-c2cccc(O)c2C3)c1 4.63

###

# Test system: DU-145
# ASSAY_PROTOCOL: Antiproliferative activity against human DU145 cells measured after 72 hrs by EZ-Cytox assay
# Assay type: functional, cell-based
# CONDITION_NOTES: DU-145, 72 h
Please use Criterion met for IC50 under 0.9 µM and Criterion not met for everything else, ties included.

Solved cases (2 shown):
1) Oc1ccc2c(c1)Cc1c(-c3cccc(Cl)c3)cc(-c3ccccc3O)nc1-2 :: Criterion not met
2) Oc1ccccc1-c1cc(-c2ccccc2Cl)c2c(n1)-c1cccc(O)c1C2 :: Criterion not met

With those in mind, consider the next molecule.
Lab note: IC50 threshold 0.9 µM. Does this molecule come in strictly under it? Oc1cccc(-c2cc(-c3ccccc3F)nc3c2Cc2ccc(O)cc2-3)c1 Criterion met

###

Parameter: inhibition. Scope: all listed entries.
# TARGET_DESC: DNA topoisomerase 2-alpha (Homo sapiens) (UniProt P11388)
# Sequence (P11388 whole entry): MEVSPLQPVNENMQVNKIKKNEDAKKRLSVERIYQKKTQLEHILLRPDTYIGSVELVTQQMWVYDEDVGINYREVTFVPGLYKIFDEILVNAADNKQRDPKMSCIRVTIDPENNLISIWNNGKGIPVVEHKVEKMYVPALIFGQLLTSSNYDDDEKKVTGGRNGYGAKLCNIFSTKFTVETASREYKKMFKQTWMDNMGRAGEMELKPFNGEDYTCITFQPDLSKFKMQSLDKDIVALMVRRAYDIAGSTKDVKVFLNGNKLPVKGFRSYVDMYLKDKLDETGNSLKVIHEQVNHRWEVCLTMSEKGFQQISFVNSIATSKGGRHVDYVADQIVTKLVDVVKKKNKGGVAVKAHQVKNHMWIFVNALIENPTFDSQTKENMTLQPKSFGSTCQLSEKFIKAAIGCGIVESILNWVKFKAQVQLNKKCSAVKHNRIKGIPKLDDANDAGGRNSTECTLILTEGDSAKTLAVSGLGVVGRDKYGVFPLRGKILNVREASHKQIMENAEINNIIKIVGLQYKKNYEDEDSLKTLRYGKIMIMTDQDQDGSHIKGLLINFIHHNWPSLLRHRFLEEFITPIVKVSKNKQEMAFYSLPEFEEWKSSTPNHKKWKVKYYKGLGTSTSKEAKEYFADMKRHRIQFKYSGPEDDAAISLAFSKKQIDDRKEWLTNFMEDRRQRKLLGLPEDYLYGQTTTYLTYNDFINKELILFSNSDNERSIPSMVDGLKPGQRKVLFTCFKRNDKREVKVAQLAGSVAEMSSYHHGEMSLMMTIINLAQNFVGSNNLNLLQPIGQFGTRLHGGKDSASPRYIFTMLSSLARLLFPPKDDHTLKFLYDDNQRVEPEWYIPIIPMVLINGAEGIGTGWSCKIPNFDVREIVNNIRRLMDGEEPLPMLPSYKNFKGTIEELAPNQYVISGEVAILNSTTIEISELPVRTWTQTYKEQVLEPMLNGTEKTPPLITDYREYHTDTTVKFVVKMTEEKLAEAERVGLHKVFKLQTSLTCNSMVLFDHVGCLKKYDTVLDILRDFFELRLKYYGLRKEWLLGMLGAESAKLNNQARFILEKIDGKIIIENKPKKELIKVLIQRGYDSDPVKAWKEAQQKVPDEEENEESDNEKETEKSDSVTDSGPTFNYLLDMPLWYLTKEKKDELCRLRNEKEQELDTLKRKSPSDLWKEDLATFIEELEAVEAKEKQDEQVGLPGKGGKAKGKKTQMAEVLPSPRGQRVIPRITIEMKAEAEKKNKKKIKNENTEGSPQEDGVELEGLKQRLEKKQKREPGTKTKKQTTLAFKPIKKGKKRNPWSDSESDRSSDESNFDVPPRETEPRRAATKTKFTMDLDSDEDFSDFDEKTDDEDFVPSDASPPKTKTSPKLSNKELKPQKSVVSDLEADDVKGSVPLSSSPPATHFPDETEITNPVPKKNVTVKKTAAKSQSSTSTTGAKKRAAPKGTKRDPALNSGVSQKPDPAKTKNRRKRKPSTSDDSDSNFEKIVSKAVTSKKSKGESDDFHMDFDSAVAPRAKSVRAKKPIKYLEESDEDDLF
# ASSAY_PROTOCOL: Inhibition of recombinant human topoisomerase 2alpha-mediated relaxation of supercoiled pBR322 DNA at 100 uM measured after 30 mins by ethidium bromide staining based agarose gel electrophoresis relative to control

Output inhibition of Oc1ccc2c(c1)Cc1c(-c3ccccc3O)cc(-c3ccccc3)nc1-2 74.8%

Output inhibition of Oc1ccccc1-c1cc(-c2ccccc2Cl)c2c(n1)-c1c(O)cccc1C2 56.5%

Output inhibition of Oc1cccc(-c2cc(-c3ccc(Cl)cc3)nc3c2Cc2cccc(O)c2-3)c1 85.2%

###

# TARGET_DESC: UniProt:P11387
# ASSAY_PROTOCOL: Inhibition of recombinant human topoisomerase 1-mediated relaxation of supercoiled pBR322 DNA at 100 uM measured after 30 mins by ethidium bromide staining based agarose gel electrophoresis relative to control
PROPERTY_MEASURED: inhibition

1) Oc1cccc(-c2cc(-c3ccccc3Cl)c3c(n2)-c2ccc(O)cc2C3)c1 :: 77.4%
2) Oc1cccc(-c2cc(-c3ccc(Cl)cc3)c3c(n2)-c2c(O)cccc2C3)c1 :: 9.3%
3) Oc1ccc2c(c1)Cc1c(-c3cccc(Cl)c3)cc(-c3ccccc3O)nc1-2 :: 1.6%
4) Oc1ccc2c(c1)Cc1c(-c3ccccc3O)cc(-c3cccc(Cl)c3)nc1-2 :: 14.6%
5) Oc1ccc(-c2cc(-c3cccc(C(F)(F)F)c3)nc3c2Cc2cc(O)ccc2-3)cc1 :: 55.8%
6) Oc1ccc(-c2cc(-c3ccc(Cl)cc3)nc3c2Cc2cccc(O)c2-3)cc1 :: 0.2%
7) Oc1cccc(-c2cc(-c3ccccc3C(F)(F)F)nc3c2Cc2cc(O)ccc2-3)c1 :: 11.7%
8) Oc1cccc(-c2cc(-c3ccccc3)nc3c2Cc2c(O)cccc2-3)c1 :: 4.6%
9) Oc1ccc2c(c1)-c1nc(-c3ccccc3O)cc(-c3ccccc3)c1C2 :: 0%

Output inhibition of Oc1ccc(-c2cc(-c3ccccc3F)nc3c2Cc2ccc(O)cc2-3)cc1 3.3%

###

# Tested on: HeLa
# ASSAY_PROTOCOL: Antiproliferative activity against human HeLa cells measured after 72 hrs by EZ-Cytox assay
# Assay type: functional, cell-based
PROPERTY_MEASURED: IC50

// known answers, use as guide
1. Oc1ccc2c(c1)-c1nc(-c3ccccc3O)cc(-c3ccccc3)c1C2 :: > 50 µM
2. Oc1ccc2c(c1)-c1nc(-c3ccccc3O)cc(-c3ccc(Cl)cc3)c1C2 :: > 50 µM

Output IC50 of Oc1ccccc1-c1cc(-c2cccc(Cl)c2)nc2c1Cc1c(O)cccc1-2 > 50 µM
